# EXPERIMENTAL SYSTEM: Chemerin-like receptor 1 (Homo sapiens, UniProt Q99788)
# MEASUREMENT DESCRIPTION: Displacement of [125I]-chemerin from ChemR23 (unknown origin) transfected in mouse BaF3 cells after 3 hrs by scintillation counting method
pIC50: −log10 of the molar value.
// pIC50 lookup, one value per entry

Before answering, review these 5 worked examples.
COMPOUND: Cc1cccc(C)c1N1CC(C(=O)Nc2cc(C(F)(F)F)cc(C(F)(F)F)c2)(C2=CCNCC2)CC1=O (stereo unspecified)
pIC50: 5.22 to 6.52
//
COMPOUND: Cc1cccc(C)c1N1CC(Cc2ncc[nH]2)(C(=O)Nc2cc(C(F)(F)F)cc(C(F)(F)F)c2)CC1=O (stereo unspecified)
pIC50: 6.52 to 7.52
//
COMPOUND: Cc1cccc(C)c1N1CC(C(=O)Nc2cccc(C(F)(F)F)c2)CC1=O (stereo unspecified)
pIC50: 5.22 to 6.52
//
COMPOUND: Cc1cccc(C)c1N1C[C@@](CN2CCC(F)(F)CC2)(C(=O)Nc2cc(OC(C)C)cc(C(F)(F)F)c2)[C@H](C)C1=O
pIC50: ≥ 7.52
//
COMPOUND: Cc1cccc(C)c1N1C[C@@](CN2CCC(F)(F)C2)(C(=O)Nc2cc(C(F)(F)F)cc(C(F)(F)F)c2)[C@H](C)C1=O
pIC50: 6.52 to 7.52

Sample C=C(C)CC1(C(=O)Nc2cc(C(F)(F)F)cc(C(F)(F)F)c2)CC(=O)N(c2c(C)cccc2C)C1 (stereo unspecified) — what was its pIC50?
≥ 7.52

# get_value(readout='pIC50', item= Cc1cccc(C)c1N1CC2(C(=O)Nc3cc(C(F)(F)F)cc(C(F)(F)F)c3)CC(O)CC2C1=O (stereo unspecified) )
6.52 to 7.52

If you can, please state the reported pIC50 value of Cc1cccc(C)c1N1C[C@@](CN(CCF)CC(C)C)(C(=O)Nc2cc(C(F)(F)F)cc(C(F)(F)F)c2)[C@H](C)C1=O .
≥ 7.52

Please give the measured pIC50 for this compound: Cc1cccc(C)c1N1C[C@@](CN2CCN(CC(F)(F)F)CC2)(C(=O)Nc2cc(F)cc(C(F)(F)F)c2)[C@H](C)C1=O
6.52 to 7.52

// pIC50 lookup, key: Cc1cccc(C)c1N1C[C@](C)(C(=O)Nc2cc(C(F)(F)F)cc(C(F)(F)F)c2)[C@H](C)C1=O
6.52 to 7.52

Endpoint output: pIC50 of Cc1cccc(C)c1N1CC(O)(C(=O)Nc2cc(C(F)(F)F)cc(C(F)(F)F)c2)CC1=O (stereo unspecified) . Value?
6.52 to 7.52

Report pIC50 for Cc1cccc(C)c1N1C[C@@](CN(C)C)(C(=O)Nc2cc(C3CC3)cc(C(F)(F)F)c2)[C@H](C)C1=O please.
6.52 to 7.52

May I ask what pIC50 has been recorded for Cc1cccc(CCN2CCCC2)c1N1CC(C(=O)Nc2cc(C(F)(F)F)cc(C(F)(F)F)c2)(C(C)C)CC1=O (stereo unspecified) ?
5.22 to 6.52

Form field: reported pIC50 of Cc1ccccc1N1CC(C)(C(=O)Nc2cc(C(F)(F)F)cc(C(F)(F)F)c2)C(C)C1=O (stereo unspecified)
≥ 7.52

# input compound: Cc1cccc(C)c1N1CC(C(=O)Nc2cc(N3CCOCC3)cc(C(F)(F)F)c2)CC1=O (stereo unspecified) ; wanted: its pIC50
6.52 to 7.52

Which measured pIC50 value corresponds to Cc1cccc(C)c1N1CC(C(=O)Nc2cc(C(F)(F)F)cc(C(F)(F)F)c2)(C2=CCS(=O)(=O)CC2)CC1=O (stereo unspecified) ?
6.52 to 7.52

* * *

# EXPERIMENTAL SYSTEM: Chemerin-like receptor 1 (Homo sapiens)
# Sequence (Q99788 whole entry): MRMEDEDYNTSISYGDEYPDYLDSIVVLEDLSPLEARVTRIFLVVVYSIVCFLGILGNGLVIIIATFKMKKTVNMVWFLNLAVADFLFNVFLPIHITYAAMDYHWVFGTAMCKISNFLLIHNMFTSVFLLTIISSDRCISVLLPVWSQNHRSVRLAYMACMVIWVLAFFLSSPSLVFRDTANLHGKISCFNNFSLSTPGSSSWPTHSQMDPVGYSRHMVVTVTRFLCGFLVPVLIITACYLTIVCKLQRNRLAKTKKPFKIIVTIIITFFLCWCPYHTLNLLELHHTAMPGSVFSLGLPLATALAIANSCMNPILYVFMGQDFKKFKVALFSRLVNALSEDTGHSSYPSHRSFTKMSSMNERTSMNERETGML
# MEASUREMENT DESCRIPTION: Displacement of [125I]-chemerin from ChemR23 (unknown origin) transfected in mouse BaF3 cells after 3 hrs by scintillation counting method
MEASURED ATTRIBUTE: IC50

If you can, please state the reported IC50 value of Cc1cccc(C)c1N1CC2(C(=O)Nc3cc(C(F)(F)F)cc(C(F)(F)F)c3)COC=CC2C1=O (configuration not stated) .
≤ 0.03 µM

Reported IC50, molecule Cc1cccc(C)c1N1CC(C(=O)Nc2cc(C(F)(F)F)cc(C(F)(F)F)c2)(C2CCN(C(=O)OC(C)(C)C)CC2)CC1=O (configuration not stated) : ____
≤ 0.03 µM

Given CC[C@@]1(C(=O)Nc2cc(C(F)(F)F)cc(C(F)(F)F)c2)CC(=O)N(c2c(C)cccc2C)C1 , state its recorded IC50.
0.03 to 0.3 µM

Entry under review: Cc1cccc(C)c1N1CC(C(=O)Nc2ccc(Cl)c(Cl)c2)CC1=O (configuration not stated) . Reported IC50?
0.3 to 6 µM

Recorded IC50 of CCc1cc(NC(=O)[C@]2(CN3CCC(F)(F)CC3)CN(c3c(C)cccc3C)C(=O)[C@H]2C)cc(C(F)(F)F)c1 , please.
0.03 to 0.3 µM

Data request, read-out IC50, for Cc1cccc(CCN2CCOCC2)c1N1CC(C(=O)Nc2cc(C(F)(F)F)cc(C(F)(F)F)c2)(C(C)C)CC1=O (configuration not stated)
0.3 to 6 µM

GET /values?readout=IC50&item= CC[C@@]1(C(=O)Nc2ccc(C)c(C(F)(F)F)c2)CN(c2c(C)cccc2C)C(=O)[C@H]1C
0.03 to 0.3 µM

Look at this molecule and give its reported IC50. C=CCc1ccccc1N1CC(C(=O)Nc2cc(C(F)(F)F)cc(C(F)(F)F)c2)(C(C)C)CC1=O (configuration not stated)
0.03 to 0.3 µM

Which IC50 is listed for CCC1(C(=O)Nc2cc(C(F)(F)F)cc(C(F)(F)F)c2)CC(=O)N(c2ccccc2OC)C1 (configuration not stated) ?
0.3 to 6 µM

Look up IC50 for this molecule: CCN(CC)C[C@@]1(C(=O)Nc2cc(Cl)cc(C(F)(F)F)c2)CN(c2c(C)cccc2C)C(=O)[C@H]1C
0.03 to 0.3 µM

* * *

# EXPERIMENTAL SYSTEM: UniProt:Q99788
# Sequence (Q99788 whole entry): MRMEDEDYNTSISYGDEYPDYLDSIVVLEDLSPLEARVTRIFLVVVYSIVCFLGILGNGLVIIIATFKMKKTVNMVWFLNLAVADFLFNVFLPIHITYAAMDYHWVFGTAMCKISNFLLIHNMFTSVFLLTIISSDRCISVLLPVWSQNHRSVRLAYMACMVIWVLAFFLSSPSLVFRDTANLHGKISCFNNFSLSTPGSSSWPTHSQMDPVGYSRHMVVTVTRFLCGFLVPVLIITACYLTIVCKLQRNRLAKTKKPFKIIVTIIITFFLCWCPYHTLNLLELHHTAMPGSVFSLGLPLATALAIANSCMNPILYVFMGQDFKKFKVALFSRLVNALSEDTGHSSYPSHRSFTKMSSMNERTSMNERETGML
# MEASUREMENT DESCRIPTION: Displacement of [125I]-chemerin from ChemR23 (unknown origin) transfected in mouse BaF3 cells after 3 hrs by scintillation counting method
# Assay type: cell-based
pIC50: −log10 of the molar value.
Measured pIC50, listed per entry.

Would you kindly share the measured pIC50 for CC[C@@]1(C(=O)Nc2cc(N3CCCC3)cc(C(F)(F)F)c2)CN(c2c(C)cccc2C)C(=O)[C@H]1C ?
6.52 to 7.52

* * *

# EXPERIMENTAL SYSTEM: UniProt:Q99788
# MEASUREMENT DESCRIPTION: Displacement of [125I]-chemerin from ChemR23 (unknown origin) transfected in mouse BaF3 cells after 3 hrs by scintillation counting method
pIC50: −log10 of the molar value.
Measured pIC50 accompanies every entry in the list below.

Solved entries (count: 3):
COMPOUND: COC(=O)c1cc(NC(=O)C2CC(=O)N(c3c(C)cccc3C)C2)cc(C(F)(F)F)c1 (centres undefined)
pIC50: 6.52 to 7.52

COMPOUND: Cc1cccc(C)c1N1CC(CN2CCCC2)(C(=O)Nc2cc(C(F)(F)F)cc(C(F)(F)F)c2)CC1=O (centres undefined)
pIC50: 5.22 to 6.52

COMPOUND: Cc1cccc(C)c1N1CC(C(=O)Nc2cc(C(F)(F)F)cc(C(F)(F)F)c2)(N2CCCC2)CC1=O (centres undefined)
pIC50: ≥ 7.52

Any idea what its pIC50 is? The compound is Cc1cccc(C)c1N1C[C@@](CN(C)C2CCCCC2)(C(=O)Nc2cc(C(F)(F)F)cc(C(F)(F)F)c2)[C@H](C)C1=O
≥ 7.52
